Biological target: FPR2 (Homo sapiens (Human))
Sequence (P25090 whole entry): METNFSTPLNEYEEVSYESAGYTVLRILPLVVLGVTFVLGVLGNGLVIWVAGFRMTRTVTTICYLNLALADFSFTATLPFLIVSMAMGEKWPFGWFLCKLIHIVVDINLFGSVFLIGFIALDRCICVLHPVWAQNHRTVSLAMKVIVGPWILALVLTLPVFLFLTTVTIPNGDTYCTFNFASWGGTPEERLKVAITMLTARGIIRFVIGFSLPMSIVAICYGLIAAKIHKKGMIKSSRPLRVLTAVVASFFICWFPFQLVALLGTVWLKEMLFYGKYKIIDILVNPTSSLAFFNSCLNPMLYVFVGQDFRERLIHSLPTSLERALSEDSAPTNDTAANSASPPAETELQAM
Assay: FLIPR Ca+2 response, HEK-Gα16 cells stably expressing the human FPR2 receptor (Table 4)
Assay type: cell-based
Details: efficacy in parentheses
valueType: FPR2 (efficacy)

Please review the following examples before continuing.
[
  {
    "compound": "CC(C)C[C@H](NC(=O)Nc1ccc(Br)cc1F)C(=O)NCC(N)=O",
    "FPR2 (efficacy)": "nM (0.95)"
  },
  {
    "compound": "CCC1(CC)NC(=O)N(NC(=O)Nc2ccc(Br)cc2F)C1=O",
    "FPR2 (efficacy)": "nM (1.0)"
  },
  {
    "compound": "CC(C)C1(CC(=O)NCCC(=O)O)NC(=O)N(NC(=O)Nc2ccc(Br)cc2F)C1=O (centres unmarked)",
    "FPR2 (efficacy)": "nM (1.0)"
  },
  {
    "compound": "CC(C)C1(C(C)C)NC(=O)N(NC(=O)Nc2ccc(Br)cc2)C1=O",
    "FPR2 (efficacy)": "nM (1.0)"
  },
  {
    "compound": "CC(C)C[C@H](NC(=O)Nc1ccc(C(F)(F)F)cc1)C(=O)NCS(=O)(=O)O",
    "FPR2 (efficacy)": "nM (0.99)"
  },
  {
    "compound": "CC(C)C1(CCc2ccccc2C(=O)O)NC(=O)N(NC(=O)Nc2ccc(Br)cc2)C1=O (centres unmarked)",
    "FPR2 (efficacy)": "nM (1.0)"
  }
]

Prompt: Please look up its FPR2 (efficacy): CSc1ccc(NC(=O)N[C@@H](CC(C)C)C(=O)NCC(=O)O)cc1
Completion: nM (1.0)

Prompt: Please look up its FPR2 (efficacy): CC[C@H](C)[C@H](NC(=O)Nc1ccc(Br)cc1F)C(=O)NCC(N)=O
Completion: nM (1.0)

Prompt: Please look up its FPR2 (efficacy): O=C(Nc1ccc(Br)cc1)N[C@@H](Cc1ccccc1)C(=O)NCCO
Completion: nM (0.86)

Prompt: Please look up its FPR2 (efficacy): CCC[C@H](NC(=O)[C@H](CC(C)C)NC(=O)Nc1ccc(Br)cc1)C(=O)O
Completion: nM (0.95)

Prompt: Please look up its FPR2 (efficacy): CCC[C@H](NC(=O)Nc1ccc(Br)cc1)C(=O)NCC(=O)OC(C)C
Completion: nM (1.0)
